- Test Target: T1, mouse MMP-2 (Mus musculus, UniProt P33434)
- T1 construct: purchased R&D Systems 924-MP-010
- T1 sequence (P33434 110-662): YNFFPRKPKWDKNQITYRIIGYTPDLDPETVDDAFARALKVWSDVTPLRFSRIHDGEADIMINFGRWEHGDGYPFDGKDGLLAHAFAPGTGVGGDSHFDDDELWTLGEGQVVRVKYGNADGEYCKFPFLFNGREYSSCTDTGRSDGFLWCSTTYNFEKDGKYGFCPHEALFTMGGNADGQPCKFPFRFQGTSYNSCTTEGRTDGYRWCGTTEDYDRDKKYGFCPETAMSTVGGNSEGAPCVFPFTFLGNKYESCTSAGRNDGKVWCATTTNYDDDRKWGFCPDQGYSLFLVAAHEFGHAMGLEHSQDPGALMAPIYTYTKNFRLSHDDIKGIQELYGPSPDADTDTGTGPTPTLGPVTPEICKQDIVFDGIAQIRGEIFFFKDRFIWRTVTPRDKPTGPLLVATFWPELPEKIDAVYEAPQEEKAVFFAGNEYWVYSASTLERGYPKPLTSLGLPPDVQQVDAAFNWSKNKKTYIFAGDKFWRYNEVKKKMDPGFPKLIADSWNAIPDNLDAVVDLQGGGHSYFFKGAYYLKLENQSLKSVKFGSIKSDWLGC
- Test Details: Enzyme inhibition assay (single point inhibition, IC50/Ki,app), substrate M-2350
- Assay type: biochemical
- Condition: medium-scale sFab; Table 10
Quantity Measured: pKi
On this scale, pKi is minus log10 of a concentration expressed in M (mol/L).

What pKi value was documented for this molecule, M0272-H08: affinity matured variant of M237-D02, sFab (antibody, V domains shown) VH: EVQLLESGGGLVQPGGSLRLSCAASGFTFSAYDMWWVRQAPGKGLEWVSVIYPSGGTTFYADSVKGRFTISRDNSKNTLYLQMNSLRAEDTAVYYCAKDRAYGDYVGWNGFDYWGQGTLVTVSS VL: QDIQMTQSPATLSLSPGERATLSCRASQSISSFLAWYQQKPGQAPRLLIYDASYRATGIPARFSGSGSGTDFTLTISSLEPEDYAVYYCQQRGNWPITFGQGTRLEIK ? 7.34

If you can, please state the reported pKi value of M0301-D12: affinity matured variant of M237-D02, sFab (antibody, V domains shown) VH: EVQLLESGGGLVQPGGSLRLSCAASGFTFSMYDMWWVRQAPGKGLEWVSVIYSSGGYTSYADSVKGRFTISRDNSKNTLYLQMNSLRAEDTAVYYCAKDRAYGDYVGWNGFDYWGQGTLVTVSS VL: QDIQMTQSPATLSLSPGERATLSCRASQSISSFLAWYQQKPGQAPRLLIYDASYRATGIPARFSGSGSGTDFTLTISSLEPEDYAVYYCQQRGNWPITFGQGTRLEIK . 7.60

For the molecule shown here, M0273-B10: affinity matured variant of M237-D02, sFab (antibody, V domains shown) VH: EVQLLESGGGLVQPGGSLRLSCAASGFTFSKYAMIWVRQAPGKGLEWVSWIPPSGGYTSYADSVKGRFTISRDNSKNTLYLQMNSLRAEDTAVYYCAKDRAYGDYVGWNGFDYWGQGTLVTVSS VL: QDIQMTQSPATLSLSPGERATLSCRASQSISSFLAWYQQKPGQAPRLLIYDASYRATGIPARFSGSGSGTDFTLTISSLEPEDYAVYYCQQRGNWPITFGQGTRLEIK , give the reported pKi. 7.23
